B1: LCOR (parent)
chain: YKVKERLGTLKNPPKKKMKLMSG

variants of: B1; test: protein stability index of a GFP-peptide fusion (GPS, HEK-293T) (PSI 1-6); higher = more stable; settings: c terminus: native;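 also: lentivirally expressed fusions sorted by FACS into six bins by GFP to DsRed ratio, PSI derived from sequencing read proportions per bin multiplied by bin number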
PROPERTY_NAME: protein stability index
// response body must contain only the number

1. G8R; 1.4

Provide one value: measured protein stability index of "V3R"
2.51

Give recorded protein stability index. "G8C"
2.52

For the variant "T9E" , report protein stability index.
1.53

For the variant "K17I" , give its reported protein stability index.
2.58

Write down protein stability index measured for item "N12T"
3.6

Determine its reported protein stability index: "M18T"
1.36

Name the recorded protein stability index of the item "K19W" in your answer.
2.52

Provide only the value of recorded protein stability index for "L7W"
1.76
